Form field: cytotoxicity at 70.5 h (one value per entry).
Assay: Human HepG2 cell viability assay in 384 well format
Assay type: toxicity, cell-based
Set-up: dose 125 nL, time 70.5 hour; concentration not given beside the values
Conditions: HepG2 cells, read-out: Inhibition
QUANTITY NAME: cytotoxicity at 70.5 h (%)

1) CCCN(C(=O)c1cnc(C)cn1)c1nc2c(s1)CCc1c-2cnn1C | 14.9
2) Cc1cccc(CN2C[C@@H]3CN(C(=O)NC(C)C)C[C@@H]3C2=O)n1 | -12
3) Cc1ccoc1C(=O)N1C[C@@H](OCC2CCOCC2)[C@H]2OCCC[C@H]21 | 8.35
4) CCC1CN(Cc2nnc(C3CC3)o2)CCC(=O)N1Cc1ccccc1 (stereo not given) | 20.4
5) Cc1cccc2[nH]c(C3CCCN(Cc4ccccc4C(=O)O)C3)nc12 (stereo not given) | 8.18
6) Cn1cnc2c1CCN(C(C(=O)N1CCCCC1)c1ccccc1)C2 (stereo not given) | -6.79
7) COc1c(CNCc2ccccc2Cn2cccn2)c(C)nn1C | -5.48
8) OC[C@@H]1CCCN1c1nccc(-c2c[nH]nc2-c2ccncc2)n1 | -2.39
9) CCNc1ncc(C(=O)N2CCc3c(nc(C)nc3N(C)C)C2)cn1 | 25.4
10) Cc1ccc(-c2nc(C3CCN(C(=O)c4cnn(C)c4)CC3)no2)cn1 | 24.5

---

Assay: Human HepG2 cell viability assay in 384 well format
Type: toxicity, cell-based
Design: dose 125 nL, time 70.5 hour; concentration not given beside the values
Conditions: HepG2 cells, read-out: Inhibition
QUANTITY NAME: cytotoxicity at 70.5 h (%)

1) COc1ccccc1C1CC(=O)Nc2nc(N3CCCCC3)sc21 (stereo not drawn) | -18.8
2) CN(Cc1ccco1)C(=O)CN1CCCC1c1cccs1 (stereo not drawn) | 24.6
3) Cc1cc(-c2ccc(C(C)N3CCOCC3)cc2)cnc1N (stereo not drawn) | -4.56
4) Cc1cc(C)c(S(=O)(=O)Nc2c(C)noc2C)cc1C(=O)O | -2.9
5) CCN1C[C@@H]2CN(c3cc(OC)ncn3)CCC[C@]2(C(=O)O)C1 | -10.9
6) CNC(=O)C1(c2cnccn2)CCCN1C(=O)c1ccn(C)n1 (stereo not drawn) | -1.48
7) CCn1cc2c(n1)C(COC)CN(C(=O)COc1ccccc1C)C2 (stereo not drawn) | -7.2
8) CN(C)CCCNC(=O)c1nc(Cc2c(Cl)cccc2Cl)no1 | 15.3
9) CN(Cc1ccccc1)C(=O)Cn1nc(N2CCOCC2)ccc1=O | 9.2
10) O=C(O)c1cccc(C2CCCN(S(=O)(=O)N3CCOCC3)C2)c1 (stereo not drawn) | -7.39
11) CC(Cn1cncn1)NC(=O)Nc1ccc(COC2CCCC2)cc1 (stereo not drawn) | -1.86
12) CO[C@H]1C[C@@H](O)C12CCN(CCCOc1ccc(C(N)=O)cc1)CC2 | -2.22
13) Cc1cccc(=O)n1CCCNc1nc(N(C)C)nc2c1CCNC2 | 18.8
14) CC(C)(C)c1cnc(CN2CCC(CN3CCOCC3)CC2)o1 | 22.6
15) O=C(NCCc1c[nH]c2ccccc12)C1(n2cnnn2)CCCCC1 | -28.6
16) CCn1cc(S(=O)(=O)NC2CCCN(CC3CCCCC3)C2)cn1 (stereo not drawn) | 15.9
17) CC(C)n1ccnc1CN1CCCN(C(=O)c2cnc[nH]2)CC1 | -1.35
18) CNC(=O)c1nc2c(s1)CCN(C(=O)c1ccc(OC)cc1)CC2 | -7.87
19) O=c1cc(N2CCCCC2)cnn1CC(O)C(F)(F)F (stereo not drawn) | -8.52
20) O=S1(=O)C[C@@H]2[C@H](C1)N(Cc1ncc[nH]1)CCN2Cc1cccnc1 | -3.77
21) Cc1nc(C)n(CC2CCCCN2Cc2cnc(C)s2)n1 (stereo not drawn) | -7.75
22) c1ccc(COC2CCN(Cc3cc4n(n3)CCCNC4)CC2)nc1 | -18
23) CC(C)CC(=O)N1CC[C@@H]2[C@H](CC1)N(Cc1cccnc1)CCS2(=O)=O | 3.17
